Please provide measured normalized growth for the entries that follow.
EXPERIMENT_SUMMARY: chemical genetic growth profiling, strain panel (AID 1159580);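 also: tested at 20 µM; growth read once vehicle control cultures reached saturation at 30 °C; 1 = growth at the plate median or of vehicle wells; lower values mean less growth of the strain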
RUN_CONDITIONS: S. cerevisiae deletion strains, growth OD, locus YGL253W, strain hxk2, hits give low values
About 2,000 (36%) of roughly 5,500 compounds were called active. Not shown: some 18% with an inconclusive outcome. The list shows a part of the results.
Write the value as a bare number.

Return the recorded normalized growth value; entry: CCCN(CCC)C(=O)C(CCC(=O)O)NC(=O)c1ccccc1 (stereo unspecified)
0.982

Please give measured normalized growth of the following entry: COc1ccc(C[C@H](N)C(=O)N[C@@H]2[C@@H](CO)OC(n3cnc4c(N(C)C)ncnc43)[C@@H]2O)cc1 (stereo partly specified)
0.981

Specify measured normalized growth for Cc1cccc(CN2CCN(C(c3ccccc3)c3ccc(Cl)cc3)CC2)c1 (stereo unspecified) .
0.77

For the compound CCOC(=O)C1=C[C@]2(CC)CCCN3CCc4c(n1c1ccccc41)[C@@H]32 , give its reported normalized growth.
1.03

Could you please provide reported normalized growth for COP(=S)(OC)Oc1ccc(SC)c(C)c1 ? Thanks!
0.955

Item CC[C@]12CCCN3CCc4c(n(c5ccccc45)C(=O)C1)[C@@H]32 : provide normalized growth
1.03

Annotate the compound O=c1cccc2n1C[C@H]1CNCC2C1 with its measured normalized growth.
1.01

Return normalized growth for the following compound: Cc1ccc(C(C)C)cc2c(C)ccc1-2
1.03

Annotate the compound CC1(C)C2CC(=O)O[C@@]3(C)C4=CC(=O)O[C@@H](c5ccoc5)[C@]4(C)CCC3[C@@]2(C)C=C[C@H]1O (stereo partly specified) with its measured normalized growth.
0.948

Give normalized growth for COc1ccc(CN(CCN(C)C)c2ncccn2)cc1
1.02

Specify reported normalized growth for the compound shown: CCCN(CCC)CCc1cccc2c1CC(=O)N2
0.993
